target: 3-(3-hydroxydecanoyloxy)decanoate synthase (Pseudomonas aeruginosa (strain ATCC 15692 / PAO1 / 1C / PRS 101 / LMG12228)); experiment: Modulation of Pseudomonas aeruginosa lacZ-fused rhlA expressed in Escherichia coli DH5alpha co-expressing Ptac-rhlR assessed as C4-AHL-induced effect at 0.17 mM after 4 hrs by beta-galactosidase assay relative to control

- Molecule: "CCCCCCCCCCCCSC[C@@H]1CCC(=O)N1"
  Activity: "103%"
- Molecule: "CCCCCCCCCCCCSC[C@@H]1CCC(O)N1 (mixture of isomers)"
  Activity: "98%"
- Molecule: "CCCCCCCCCSC[C@H]1NC(O)[C@H](O)[C@@H]1O (mixture of isomers)"
  Activity: "98%"
- Molecule: "CCCCCCCCCSC[C@H]1NC(=O)[C@H](O)[C@@H]1O"
  Activity: "106%"

====

target: Transcriptional activator protein LasR (Pseudomonas aeruginosa (strain ATCC 15692 / PAO1 / 1C / PRS 101 / LMG12228), UniProt P25084); test: Inhibition of Pseudomonas aeruginosa LasR
Sequence (P25084 whole entry): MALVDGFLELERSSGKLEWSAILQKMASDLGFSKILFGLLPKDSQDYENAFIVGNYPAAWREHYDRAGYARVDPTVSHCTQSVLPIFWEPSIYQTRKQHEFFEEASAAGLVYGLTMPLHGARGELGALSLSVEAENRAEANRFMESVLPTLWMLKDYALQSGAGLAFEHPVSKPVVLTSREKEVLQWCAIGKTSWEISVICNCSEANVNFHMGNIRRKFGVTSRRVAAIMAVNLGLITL

- Compound: "O=C(Cc1cccc([N+](=O)[O-])c1)N[C@H]1CCOC1=O"
  Unit abbreviation: "nM"
  IC50: 610
- Compound: "CCCCCCCCCCCC(=O)N[C@H]1CCOC1=O"
  Unit abbreviation: "nM"
  IC50: 40
- Compound: "CCCCCCCCCC(=O)CC(=O)NC1CCCCC1=O (centres undefined)"
  Unit abbreviation: "nM"
  IC50: 10000
- Compound: "CCCCCCCCCCCC(=O)N[C@H]1CCSC1=O"
  Unit abbreviation: "nM"
  IC50: 40

====

Measured Activity, listed per entry.
target: Acyl-homoserine-lactone synthase (Pseudomonas aeruginosa (strain ATCC 15692 / PAO1 / 1C / PRS 101 / LMG12228)); test: Modulation of Pseudomonas aeruginosa lacZ-fused lasI expressed in Escherichia coli DH5alpha co-expressing pBAD-lasR assessed as 3-oxo-C12-AHL-induced effect at 0.17 mM after 3 hrs by beta-galactosidase assay relative to control
Readout kind: Activity (%)

- Compound: "CCCCCCCCCCCCSC[C@@H]1CCC(=O)N1"
  Experimental value: 52
- Compound: "CCCCCCCCCSC[C@H]1NC(O)[C@H](O)[C@@H]1O (mixture of isomers)"
  Experimental value: 78
- Compound: "CCCCCCCCCSC[C@H]1NC(=O)[C@H](O)[C@@H]1O"
  Experimental value: 93
- Compound: "CCCCCCCCCCCCSC[C@@H]1CCC(O)N1 (mixture of isomers)"
  Experimental value: 72
